Target: Serine protease 1 (Bos taurus)
Sequence (P00760 whole entry): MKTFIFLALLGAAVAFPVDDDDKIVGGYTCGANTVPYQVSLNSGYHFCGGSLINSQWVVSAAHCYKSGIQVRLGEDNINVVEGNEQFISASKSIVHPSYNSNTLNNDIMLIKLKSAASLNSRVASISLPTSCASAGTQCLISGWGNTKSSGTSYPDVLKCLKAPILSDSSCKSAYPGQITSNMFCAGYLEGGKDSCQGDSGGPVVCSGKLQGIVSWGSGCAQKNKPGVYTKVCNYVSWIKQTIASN
Kindly apply the following: y if Ki is less than 5 µM, n in every other case.

• N=C(N)N1CCC[C@@H](CNC(=O)[C@@H](Cc2c[nH]c3ccccc23)NS(=O)(=O)c2ccc3ccccc3c2)C1 = n
• C[C@@H]1CCN(C(=O)[C@H](CC(=O)NC[C@@H]2CCCN(C(=N)N)C2)NS(=O)(=O)c2ccc3ccccc3c2)[C@@H](C(=O)O)C1 = y
• CCCCN(CC(=O)O)C(=O)[C@H](CC(=O)NC[C@@H]1CCCN(C(=N)N)C1)NS(=O)(=O)c1ccc2ccccc2c1 = y
• CCOC(=O)CN(C(=O)[C@H](CC(=O)NC[C@@H]1CCCN(C(=N)N)C1)NS(=O)(=O)c1ccc2ccccc2c1)C1CC1 = n
• CC(=O)Nc1ccc(C[C@@H](NS(=O)(=O)c2ccc3ccccc3c2)C(=O)NCC2CCCN(C(=N)N)C2)cc1 (some centres not stated) = n
• CCOC(=O)C1CCN(C(=O)[C@H](CC(=O)NCC2CCCN(C(=N)N)C2)NS(=O)(=O)c2ccc3ccccc3c2)CC1 (some centres not stated) = n
• N=C(N)N1CCC[C@@H](CNC(=O)C[C@H](NS(=O)(=O)c2ccc3ccccc3c2)C(=O)N(CC(=O)O)C2CC2)C1 [NAPSAGATRAN ANHYDROUS] = y
